target: Cyclin-dependent kinase 2 (Homo sapiens, UniProt P24941)
assay_notes: Inhibition of CDK2/cyclin E expressed in Sf9 cells-baculovirus system assessed as retinoblastoma susceptibility gene product phosphorylation
readout_label: IC50

Look over these answered cases.
compound_smiles	experimental_result
CN1CCN(c2ccc(N/C=C3\C(=O)NC(=O)c4ccc(-c5ccccc5)cc43)cc2)CC1	> 50 µM
O=C1NC(=O)c2ccc(-c3cccnc3)cc2/C1=C/Nc1ccc(CN2CCCCC2)cc1	> 50 µM

Would you kindly look at the next entry?
Query: Please give the measured IC50 for this compound: O=C1NC(=O)c2ccc(-c3ccccc3)cc2/C1=C/Nc1ccc(CN2CCCCC2)cc1
Response: > 50 µM
